TGI: recorded values
- System: SK-MEL-2 melanoma
- ASSAY_TEXT: NCI tumour cell line growth inhibition, 48 h

Worked cases, answers included:
# COMPOUND, TGI
data = [
    ("CC(C)C[C@H](NC(=O)[C@@H](O)[C@H](N)Cc1ccccc1)C(=O)O", "> 100 µM"),
    ("O=c1[nH]c(-c2ccccn2)nc2sc3c(c12)CCCCCC3", "> 100 µM"),
]

Please state recorded TGI (tested on SK-MEL-2 melanoma) of CCOc1ccc(NC(=S)/N=C/C(C(=O)Nc2ccccc2C)=C(\C)O)cc1
> 100 µM

Check O=C(CN=Cc1cccs1)CSC(c1ccccc1)c1ccccc1 too.
34.8 µM

Repeat with C/C=C\C(CC(=O)O)CC(=O)NCCC1CN(S(=O)(=O)C(F)(F)F)c2ccccc21 (configuration not stated)
> 100 µM

c1ccc(C/C(=N\Nc2nc3ccccc3o2)c2ccccn2)cc1 ?
20.7 µM

Another compound to check: CCN(CC)CCOc1ccc(C2=C(c3ccccc3)CCc3cc(OC)ccc32)cc1
4.67 µM

Note, next up: CC(=O)Nc1ccc(-n2cnc3cc(-c4ccc(OCCN5CCCCC5)cc4)ccc32)cc1
11.5 µM

One more compound: C=C1C(=O)C[C@@]23CCC[C@@]12CC(O)C3 (some centres not stated)
73.2 µM

Another compound: C/C(=N\O)c1ccc(Nc2c3ccccc3nc3occc23)cc1
3.5 µM

Similarly, CN1C(=O)[C@@]2(C=CC3(CC2)OCCO3)c2ccccc21 ?
> 50 µM

Try CC1=CC(c2ccccc2)n2c(nc3cc4ccccc4cc32)N1 (configuration not stated) next.
> 100 µM

Would you kindly repeat that for CC1SC2(CCCCC2)N(NC(=O)c2[nH]c3ccc(F)cc3c2-c2ccccc2)C1=O (configuration not stated) ?
> 100 µM

What would you report for Cc1cnc2[nH]c(-c3ccccc3)cc(=O)c2c1 ?
> 35.7 µM

Next up: O=C(O)c1ccc(Nc2cnc3ccc(C(F)(F)F)cc3n2)cc1
30.7 µM

Now the compound CC(=O)c1nccc2c1c(C)nc1ccccc12
> 100 µM

---

- Test system: SR leukemia
- ASSAY_TEXT: NCI tumour cell line growth inhibition, 48 h; in the data active means GI50 below about 0.43 µM; inactive means the rest
Write down the outcome that applies. Available outcomes: active, inactive

Solved cases (2 shown):
# MOLECULE, LABEL
measured = [
    ("Cc1ccc(OCCCCCCNCCO)c(C)c1", "inactive"),
    ("COc1ccc(N=C2NN=C(c3c[nH]c4ccccc34)CS2)cc1OC", "active"),
]

Test call for this molecule, please: CC(C)n1nc(C#Cc2cccc(NC(=O)c3cccc(C(F)(F)F)c3)c2)c2c(N)ncnc21
inactive

Same question, CN1CCN(C(=S)SCN2C(=O)c3ccccc3S2(=O)=O)CC1 this time
inactive

# iterate: O=c1c2cc(F)ccc2sc2c(NCCCN3CCCC3)nc3ccccc3c12
inactive

What do we get for O=C1/C(=C/c2ccccc2)CN(C(=O)Oc2ccc([N+](=O)[O-])cc2)C/C1=C\c1ccccc1 ?
active

Continue with COc1ccc(N(Cc2cc(OC)c(OC)c(OC)c2)C2OC(=O)c3ccccc32)cc1 (configuration not stated)
inactive

---

- Tested on: EKVX NSCLC
- ASSAY_TEXT: NCI tumour cell line growth inhibition, 48 h
Reported TGI is given for each of the following compounds.

// below: answered compounds
# COMPOUND, TGI
measured = [
    ("C/C(=N\\O)c1ccc(Nc2c3ccccc3nc3occc23)cc1", "> 50 µM"),
    ("O=c1c2cc(F)ccc2sc2c(NCCCN3CCCC3)nc3ccccc3c12", "8.48 µM"),
    ("CCOC(=O)C1=C(c2ccccc2)N(Cc2ccccc2)C2(O)C=CC(=O)C3C(=O)N(c4ccccc4)C(=O)C132 (stereo unspecified)", "6.51 µM"),
]

Looking for the measured TGI of CN1c2ccccc2C(=O)Nc2cnc(Cl)nc21 , can you help?
> 100 µM

---

- System: A549 NSCLC
- ASSAY_TEXT: NCI tumour cell line growth inhibition, 48 h
Catalogue of molecules with associated GI50

Returns the measured GI50 for the input molecule. Input: C[C@]12CC[C@@H]3c4ccc(O)cc4CC[C@H]3[C@@H]1CC[C@@H]2NS(=O)(=O)c1ccc(-c2ccccc2)cc1
3.26 µM

---

- Tested on: RPMI-8226 leukemia
- ASSAY_TEXT: NCI tumour cell line growth inhibition, 48 h
In this section we review reported TGI values for a set of compounds.
Use µM as the unit, but write only the number.

Take a look at these entries with their results.
# COMPOUND, TGI [µM]
data = [
    ("CN(C)c1ccc(Sc2ccc3nc(N)nc(N)c3c2)cc1", 10.9),
    ("CCCCCCCCCCCCNC(=O)[C@H]1CSC(c2ccc(OC)c(F)c2)N1 (some centres not stated)", 4.62),
    ("C=C(C)[C@]12CC(C)C34OC(/C=C\\C=C\\CCCCCCCCC)(O[C@@H]1[C@@H]3[C@@H]1O[C@]1(CO)[C@@H](O)[C@]1(O)C(=O)C(C)=C[C@@H]41)O2 (some centres not stated)", 17),
    ("Cc1ccc(OCCCCCCNCCO)c(C)c1", 37.9),
    ("CCCCCCCCC(=O)NCCCNCCCNC(=O)CCCCCCCC", 11),
    ("C[C@]12CC[C@@H]3c4ccc(O)cc4CC[C@H]3[C@@H]1CC[C@@H]2NS(=O)(=O)c1ccc(-c2ccccc2)cc1", 11.4),
]

In the following, a different compound is considered.
I'd like to know its TGI. The compound in question is C/C(=C/CC[C@](C)(OC1OC(CO)C(O)C(O)C1O)[C@H]1CC[C@]2(C)[C@@H]1CC[C@@H]1[C@@]3(C)CC[C@H](O)C(C)(C)[C@@H]3C[C@H](O)[C@]12C)CO (some centres not stated)
28.3

---

- System: HOP-92 NSCLC
- ASSAY_TEXT: NCI tumour cell line growth inhibition, 48 h
Reported TGI is given for each of the following compounds.

Worked examples follow.
# COMPOUND, TGI
measured = [
    ("O=[N+]([O-])O.[NH-]C1CCCCC1[NH-].[NH-]C1CCCCC1[NH-].[NH-]C1CCCCC1[NH-].[OH-].[OH-].[OH-].[Pt+4].[Pt+4].[Pt+4] (centres undefined)", "> 61.2 µM"),
    ("CCN(CC)CCOc1ccc(C2=C(c3ccccc3)CCc3cc(OC)ccc32)cc1", "10.9 µM"),
]

Need TGI of O=C(NO)C(O)C(O)C(O)C(O)CO (centres undefined) , thanks.
> 100 µM

Try this compound next: COC1C(CO)OC(n2c3ccccc3c3c4c(c5c6ccccc6[nH]c5c32)C(=O)NC4=O)C(O)C1OC(=O)C(N)CCCCN (centres undefined)
12.9 µM

Similarly, CCC1(O)CN(CCOC)[C@H]2C[C@@H]1C(=O)c1[nH]c3ccccc3c12 (some centres undefined) ?
> 100 µM

Please give the result for O=c1[nH]c2cc(O)ccc2n2cc3c(F)cccc3c12 too.
> 100 µM

Next record, please: O=C(OCc1nc2ccc(Br)cc2c(=O)n1-c1ccccc1)c1ccccc1O
> 100 µM

Also need COc1cc(CC(=O)c2ccc3c(c2)OCO3)cc(OC)c1OC , thanks.
> 100 µM

Try C=CC[PH+](c1ccccc1)c1ccccc1.C=CC[PH+](c1ccccc1)c1ccccc1.[Cl][Pt][Cl] next.
12.4 µM

---

- System: M14 melanoma
- ASSAY_TEXT: NCI tumour cell line growth inhibition, 48 h
ENDPOINT_NAME: TGI

Please review the entries below; each comes with its answer.
# COMPOUND, MEASURED_RESULT
data = [
    ("Cc1ns/c(=N\\C(=S)N(C)C)n1C", "> 100 µM"),
    ("CC1SC2(CCCCC2)N(NC(=O)c2[nH]c3ccc(F)cc3c2-c2ccccc2)C1=O (centres undefined)", "> 100 µM"),
    ("CC(C)(C)c1ccc(S(=O)(=O)N[C@H]2CC[C@H]3[C@@H]4CCc5cc(O)ccc5[C@H]4CC[C@]23C)cc1", "4.04 µM"),
    ("C=CCN1C(=O)/C(=C/c2ccc(Cl)cc2)N=C1SC1OC(COC(C)=O)C(OC(C)=O)C(OC(C)=O)C1OC(C)=O (centres undefined)", "> 100 µM"),
    ("COc1ccc(N(Cc2cc(OC)c(OC)c(OC)c2)C2OC(=O)c3ccccc32)cc1 (centres undefined)", "> 100 µM"),
    ("C/C(=C/CC[C@](C)(OC1OC(CO)C(O)C(O)C1O)[C@H]1CC[C@]2(C)[C@@H]1CC[C@@H]1[C@@]3(C)CC[C@H](O)C(C)(C)[C@@H]3C[C@H](O)[C@]12C)CO (some centres undefined)", "> 100 µM"),
]

Tell me reported TGI for COC(=O)C1=C(O)C(C(=O)OC)[C@@]2(O)[C@@H](C(=O)OC)C(c3ccc(OC(=O)C(CC(C)C)NC(C)=O)cc3)C[C@@H]1[C@@H]2C(=O)OC (some centres undefined) , tested with M14 melanoma.
88.1 µM

Ok, now CCOC(=O)NNC(=O)NC12CC3CC(CC(C3)C1)C2
> 100 µM

Also need O=C1N2CCc3c([nH]c4ccccc34)C23CC2CCCC12S3 (centres undefined) , thanks.
> 50 µM

Try this compound next: CCCCCCN(CCCCCC)CC(O)c1cccc2ccc(Cl)cc12 (centres undefined)
22 µM

Ok, now O=C(CCN1CCCCC1CO)Nc1ccc2c(c1)C(=O)c1ccc(NC(=O)CCN3CCCCC3CO)cc1C2=O (centres undefined)
22.4 µM

COc1ccc(C[C@H]2COC(=O)[C@@H]2Cc2cc(OC)c(OC)c(OC)c2)cc1OC ?
> 100 µM

Another compound to look at: COc1cc(/C=C\c2cccnc2Nc2ccccc2)cc(OC)c1OC
38.1 µM

Param item: NC(CO)c1ccccc1 (centres undefined)
> 100 µM

Moving on to C/C=C\C(CC(=O)O)CC(=O)NCCC1CN(S(=O)(=O)C(F)(F)F)c2ccccc21 (centres undefined)
> 100 µM

Queued: C=CCOn1c(C=C)nc2c(C)cccc21
12.3 µM

Same question, CC(=O)Nc1ncc2c(n1)-c1ccccc1OC2 this time
> 100 µM

Next up: CCCCCCCC(CC(=O)O)OC(=O)CC(CCCCCCC)OC1OC(C)C(O)C(O)C1OC1OC(C)C(O)C(O)C1O (centres undefined)
> 100 µM

Proceed to Cc1csc(Nc2nc(-c3cccc(Cl)c3)nc(C(Cl)(Cl)Cl)n2)n1
> 33.3 µM

Next compound: BrCC[P+](c1ccccc1)(c1ccccc1)c1ccccc1
18 µM
